# protocol.summary: Stability of the radiopeptides in mouse blood plasma
# study.conditions: mouse, mouse blood plasma
Record form. Attribute: remaining at 4 h, 10 MBq/200 µL. Fill in for each entry.
One number for each entry, in %.

compound	observation.type	recorded.result
CC(C)C[C@H](NC(=O)[C@H](Cc1ccc(O)cc1)NC(=O)[C@@H](CCCNC(=N)N)NC(=O)[C@@H](CO)NC(=O)[C@H](Cc1ccccc1)NC(=O)[C@H](CC1CCCCC1)NC(=O)[C@H](CC(=O)O)NC(=O)CCOCCOCCOCCOCCNC(=O)[C@H](CCCCNC(=O)CCCc1ccc(I)cc1)NC(=O)CN1CCN(CC(=O)O)CCN(CC(=O)O)CCN(CC(=O)O)CC1)C(=O)N[C@@H](Cc1c[nH]c2ccccc12)C(=O)N[C@@H](CO)C(N)=O [[^177Lu]Lu-uPAR-05, metal not drawn]	remaining at 4 h, 10 MBq/200 µL	98
CC(C)C[C@H](NC(=O)[C@H](Cc1ccc(O)cc1)NC(=O)[C@@H](CCCNC(=N)N)NC(=O)[C@@H](CO)NC(=O)[C@H](Cc1ccccc1)NC(=O)[C@H](CC1CCCCC1)NC(=O)[C@H](CC(=O)O)NC(=O)[C@H](CCCCNC(=O)CCCc1ccc(I)cc1)NC(=O)[C@@H](N)CCCCNC(=O)CN1CCN(CC(=O)O)CCN(CC(=O)O)CCN(CC(=O)O)CC1)C(=O)N[C@@H](Cc1c[nH]c2ccccc12)C(=O)N[C@@H](CO)C(N)=O [[^177Lu]Lu-uPAR-04, metal not drawn]	remaining at 4 h, 10 MBq/200 µL	99

Switching to the query record.
Just so you know, measured remaining at 4 h, 10 MBq/200 µL for CC(C)C[C@H](NC(=O)[C@H](Cc1ccc(O)cc1)NC(=O)[C@@H](CCCNC(=N)N)NC(=O)[C@@H](CO)NC(=O)[C@H](Cc1ccccc1)NC(=O)[C@H](CC1CCCCC1)NC(=O)[C@H](CC(=O)O)NC(=O)[C@H](CCCCNC(=O)CCCc1ccc(I)cc1)NC(=O)CN1CCN(CC(=O)O)CCN(CC(=O)O)CCN(CC(=O)O)CC1)C(=O)N[C@@H](Cc1c[nH]c2ccccc12)C(=O)N[C@@H](CO)C(N)=O [[^177Lu]Lu-uPAR-01, metal not drawn] came out at 100
